Source of measurements: patent US11912668B2

What follows is a record of IC50 for PERK kinase (Homo sapiens (Human), UniProt Q9NZJ5).

For each of the molecules below, note its IC50.
1. CNc1nc2nc(NC3CC3)ncc2cc1-c1cccc(NS(=O)(=O)c2cc(Cl)cnc2OC)c1F
2. CNc1ncc2cc(-c3cc(F)cc(NS(=O)(=O)c4cc(Cl)cnc4OC)c3)c(NC[C@H](C)OC)nc2n1
3. CNc1ncc2cc(-c3cc(NS(=O)(=O)c4cc(Cl)cnc4OC)ccc3F)ccc2n1

Result:
1. 100 to 500 nM
2. 1000 to 10000 nM
3. 100 to 500 nM

Could you tell me IC50 for each of these molecules? They are listed below.
1. COc1cc(OC)c(S(=O)(=O)Nc2cccc(-c3cc4cnc(N)nc4nc3OC)c2F)cc1Cl
2. CNc1ncc2cc(-c3cc(NS(=O)(=O)c4cc(Cl)cnc4OC)ccc3OC)c(C)nc2n1
3. CNC(=O)c1cc(Cl)cc(S(=O)(=O)Nc2cccc(-c3cc4cnc(NC)nc4nc3NC)c2F)c1Cl
4. CNc1cc2nc(C)c(-c3cccc(NS(=O)(=O)c4cc(Cl)cnc4OC)c3Cl)cc2cn1
5. CNc1ncc2cc(-c3cc(F)cc(NS(=O)(=O)c4cc(Cl)cnc4OC)c3)c(NC[C@@H](C)OC)nc2n1

Result:
1: 500 to 1000 nM; 2: 1000 to 10000 nM; 3: 1000 to 10000 nM; 4: ≤ 100 nM; 5: 1000 to 10000 nM
